Source: PubChem BioAssay (NCI)

Attribute: growth inhibition
# METHOD: NCI Yeast Anticancer Drug Screen. Data for the sgs1 mgt1 strain (AID 161);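 further: 0% = growth of cultures given vehicle only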
# CONDITION DESCRIPTION: S. cerevisiae sgs1 mgt1 strain, at 50.0 µM, active compounds read high
The panel holds about 79,000 compounds, 15% with a hit somewhere; the sample as a whole holds those more often.
PARAMETER: growth inhibition (%)

[[record]]
molecule = "Nc1ccc(C(=O)O)cc1Cl"
unit_symbol = "%"
observed = 2.9

[[record]]
molecule = "CCOC(=O)C(O)Cc1ccc(N)cc1 (stereo not given)"
unit_symbol = "%"
observed = 12.3

[[record]]
molecule = "O=C(O)C1CC2(CCC1c1ccccc1)SCCS2 (stereo not given)"
unit_symbol = "%"
observed = 12.1

[[record]]
molecule = "Cc1c([N+](=O)[O-])ccc2c(NCCCN(C)C)ccnc12"
unit_symbol = "%"
observed = -5.35

[[record]]
molecule = "CCOC(=O)CCNc1nc(N)nc(C)c1NC=O"
unit_symbol = "%"
observed = -16.5

[[record]]
molecule = "CCC(C)Nc1ccc(NS(=O)(=O)CCl)cc1 (stereo not given)"
unit_symbol = "%"
observed = 13.3

[[record]]
molecule = "CN(C)c1ccc(N=Nc2ccc(S(=O)(=O)O)cc2)cc1.CN(C)c1ccc(N=Nc2ccc(S(=O)(=O)O)cc2)cc1.[NH-]C1CCCCC1[NH-].[Pt+2]"
unit_symbol = "%"
observed = 10.3

[[record]]
molecule = "CCNC(=O)NC(=O)C(C)(C)Oc1ccc(Cl)cc1"
unit_symbol = "%"
observed = 7.4

[[record]]
molecule = "CSC1=N[C@H](c2ccccc2)CS1"
unit_symbol = "%"
observed = 21.7

[[record]]
molecule = "CC(C)NC(=O)OCc1c(COC(=O)NC(C)C)c(-c2ccc(Cl)c(Cl)c2)n2c1C[C@@H](O)C2"
unit_symbol = "%"
observed = 21.5

[[record]]
molecule = "CC(C)CSC(C)C"
unit_symbol = "%"
observed = -27.6

[[record]]
molecule = "O=c1/c(=c2\\c(=O)c3cccc4cccc2c43)c2cccc3cccc1c32"
unit_symbol = "%"
observed = -0.4

[[record]]
molecule = "O=C(CC(=O)C1CCOC1=O)C(=O)Nc1cccc(Cl)c1 (stereo not given)"
unit_symbol = "%"
observed = 5.5

[[record]]
molecule = "Cc1ccc(NC(=O)CC/C(CC(=O)C(C)(C)C)=N\\Nc2ccc([N+](=O)[O-])cc2[N+](=O)[O-])cc1C"
unit_symbol = "%"
observed = -11.7

[[record]]
molecule = "O=S(=O)(CS(=O)(=O)N1CCCCC1)N1CCCCC1"
unit_symbol = "%"
observed = -3.4

[[record]]
molecule = "COc1cccc(/C=C2\\S/C(=N/Nc3nc(C)c(C)s3)NC2=O)c1O"
unit_symbol = "%"
observed = 20.8

[[record]]
molecule = "O=C(CC(c1ccccc1)C(Sc1ccccc1)(Sc1ccccc1)Sc1ccccc1)c1ccccc1 (stereo not given)"
unit_symbol = "%"
observed = 13.4

[[record]]
molecule = "O=C(O)CCC(=O)c1ccc[nH]1"
unit_symbol = "%"
observed = -30.1

[[record]]
molecule = "O=C(O)C1CCCN1/N=C/c1cccc([N+](=O)[O-])c1 (stereo not given)"
unit_symbol = "%"
observed = 9.1

[[record]]
molecule = "C/C([O-])=C(/c1nc(-c2ccc([N+](=O)[O-])o2)no1)[n+]1cc(C)ccc1C"
unit_symbol = "%"
observed = 18.9

[[record]]
molecule = "CCCCCCCCCCCCCCCC(=O)NC(CCCCN)C(=O)NC(CCCCN)C(=O)OCC (stereo not given)"
unit_symbol = "%"
observed = 68.9

[[record]]
molecule = "C/C=C/C=C/C(=O)CCC1(C)OC(=O)C(C)=C1O (stereo not given)"
unit_symbol = "%"
observed = 2.4

[[record]]
molecule = "COC(=O)c1nc(NN)[nH]c(=O)c1C"
unit_symbol = "%"
observed = -27.6

[[record]]
molecule = "CCCCCSC1CCCC1"
unit_symbol = "%"
observed = 7.65

[[record]]
molecule = "C=CCNC(=S)/N=C/c1c(O)c2ccccc2oc1=O"
unit_symbol = "%"
observed = -43

[[record]]
molecule = "O=NN(CCCl)C(=O)/N=N/C(=O)N(CCCl)N=O"
unit_symbol = "%"
observed = -20.4

[[record]]
molecule = "COc1cc(C(=O)N=Nc2c(O)[nH]c3ccc(Br)cc23)cc(OC)c1OC"
unit_symbol = "%"
observed = -7.1

[[record]]
molecule = "[Cl][Cu][Cl].c1ccc2c(c1)Sc1ccccc1[N+]2=c1ccc2nc3ccccc3sc-2c1"
unit_symbol = "%"
observed = 29.8

[[record]]
molecule = "CCC(O)C(C)(C)N (stereo not given)"
unit_symbol = "%"
observed = 2.7

[[record]]
molecule = "O=C(CCCCCC(=O)CC(=O)CCc1ccccc1)CC(=O)CCc1ccccc1"
unit_symbol = "%"
observed = 53.5

[[record]]
molecule = "Nc1ncc([N+](=O)[O-])c(=O)[nH]1"
unit_symbol = "%"
observed = -1.35

[[record]]
molecule = "N#Cc1ccc[n+](Cc2c(Cl)cccc2Cl)c1"
unit_symbol = "%"
observed = 23.2

[[record]]
molecule = "O=C(O)C(O)C(O)C(O)C(O)C(=O)O.[Cu+2] (stereo not given)"
unit_symbol = "%"
observed = 2.25

[[record]]
molecule = "CCOC(=O)C(C)(C)Oc1ccc2c(=O)cc(-c3ccc(Cl)cc3)oc2c1"
unit_symbol = "%"
observed = -30.3

[[record]]
molecule = "CN(C)C(=S)N(C(=S)N(C)C)c1ccc(Cl)cc1"
unit_symbol = "%"
observed = -7.15

